Values compiled from patent US11008325B2.

- protocol.description: pharmacokinetics after IV and IP administration
- Type: in vivo, Balb/c mice
- measurement.context: Balb/c, mouse, plasma; IV 3 mg/kg
parameter.measured: C0 (ng/mL)
Respond numerically; units are ng/mL and should not be typed.

C0 in this record for Cc1cc(NC(=O)c2nc3[nH]c4c(c(=O)n3n2)CCC4)c(C)cc1NC(=O)CCc1nnc(-c2ccccc2)o1 : 35000

----------
- target.under.test: MDA-9 PDZ12 tandem domain (PDZ1) (Homo sapiens)
- Construct: the MDA-9/Syntenin construct used for the screen contains both PDZ domains; made in house
- protocol.description: NMR [15N,1H] HSQC chemical shift change and titration binding
- measurement.context: NMR titration; read-out: upper limit for the dissociation constant of the complex, Kd
pKd: −log10 of the molar value.
parameter.measured: pKd

pKd in this record for Cc1cc(NC(=O)c2nc3[nH]c4c(c(=O)n3n2)CCC4)c(C)cc1NC(=O)CCc1nnc(-c2ccccc2)o1 : > 5.00

----------
- protocol.description: pharmacokinetics after IV and IP administration
- Type: in vivo, Balb/c mice
- measurement.context: Balb/c, mouse, plasma, ip, 30 mg/kg, IP 30 mg/kg; read-out: AUC0-int (first line)
parameter.measured: AUC (µg·h/mL)
Respond numerically; units are µg·h/mL and should not be typed.

AUC in this record for Cc1cc(NC(=O)c2nc3[nH]c4c(c(=O)n3n2)CCC4)c(C)cc1NC(=O)CCc1nnc(-c2ccccc2)o1 : 975

----------
- protocol.description: pharmacokinetics after IV and IP administration
- Assay type: in vivo, Balb/c mice
- measurement.context: Balb/c, mouse, plasma; IP 30 mg/kg, 6.00 h; read-out: Plasma Concentration, Mean IP
parameter.measured: concentration at 6 h (µg/mL)
Respond numerically; units are µg/mL and should not be typed.

concentration at 6 h in this record for Cc1cc(NC(=O)c2nc3[nH]c4c(c(=O)n3n2)CCC4)c(C)cc1NC(=O)CCc1nnc(-c2ccccc2)o1 : 54.6

----------
- protocol.description: pharmacokinetics after IV and IP administration
- Assay type: in vivo, Balb/c mice
- measurement.context: Balb/c, mouse, serum, ip, 30 mg/kg, administered I.P. 30.0 mg/Kg, mice; read-out: bioavailability
parameter.measured: bioavailability (%)
Respond numerically; units are % and should not be typed.

bioavailability in this record for Cc1cc(NC(=O)c2nc3[nH]c4c(c(=O)n3n2)CCC4)c(C)cc1NC(=O)CCc1nnc(-c2ccccc2)o1 [113B7] : 80

----------
- target.under.test: MDA-9 PDZ12 tandem domain (PDZ1) (Homo sapiens, UniProt O00560)
- Construct: the MDA-9/Syntenin construct used for the screen contains both PDZ domains; made in house
- Sequence (O00560 110-274): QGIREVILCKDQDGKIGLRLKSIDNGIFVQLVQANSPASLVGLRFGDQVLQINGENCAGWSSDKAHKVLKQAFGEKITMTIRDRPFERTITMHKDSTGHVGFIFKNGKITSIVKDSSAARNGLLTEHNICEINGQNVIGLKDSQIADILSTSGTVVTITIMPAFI
- protocol.description: NMR [15N,1H] HSQC chemical shift change and titration binding
- measurement.context: NMR titration following backbone amide of residue 147; read-out: Kd values
Parameter: pKd. Scope: all listed entries.
Answer as the number alone; pKd is minus log10 of concentration in mol/L.

Cc1cc(=O)n2nc(C(=O)Nc3ccc(O)c(F)c3)nc2[nH]1 | 3.83
O=c1c2c([nH]c3nc(COc4ccccc4)nn13)CCC2 | 3.77
Cc1cc(NC(=O)c2nc3[nH]c4c(c(=O)n3n2)CCC4)c(C)cc1NC(=O)CCc1nnc(-c2ccccc2)o1 | 4.67

Consider the record given below.
pKd in this record for O=C(Nc1ccc(O)cc1)c1nc2[nH]c3c(c(=O)n2n1)CCC3 : 2.79
